The measured values listed here are drawn from the supplement of paper PMC7125110.

Please respond with reported self-cleavage kobs at 40 uM GlcN6P for every item in the list.
B1: glmS ribozyme (parent)
chain: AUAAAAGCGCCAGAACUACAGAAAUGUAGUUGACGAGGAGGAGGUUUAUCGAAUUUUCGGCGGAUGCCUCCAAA

- Variants of: B1
- PROTOCOL DESCRIPTION: self-cleavage kobs at 40 uM GlcN6P; higher = faster cleavage; RNA array
- MEASUREMENT PARAMETERS: with glucosamine-6-phosphate
Variants at the floor of the assay were thinned out.
One number for each entry, in s⁻¹.

// self-cleavage kobs at 40 uM GlcN6P value for AUAAAAGCGCCAGAGCUACAGAAAUGUAGUUGACGAGGAGGAGGUUUAUCGAAUUUUCGGCGGAUGCUUCCAAA [A15G C68U] : 0.000128

The variant listed as AUAAAAGCGCCAGAACUACAGAAAUGUAGUUGACAAGGAGGAGGUUUAUGGAAUAUUCGGGGGAUGCCUCCAAA [G35A C50G U55A C61G] has a reported self-cleavage kobs at 40 uM GlcN6P of 0.000205

Report self-cleavage kobs at 40 uM GlcN6P for each item below.
1. AUAAAAGCGCCAGAACUACAGAAAUGUAGUUGACGAAGAGGAGGUUUAUCGAAUUUUCGGCGGAUGCCUUCAAA [G37A C70U]
2. AUAAAAGCGCCAGGACUACAGAAAUGUAGUUGACGAGGAGGAGGUUUAUCGAGUUUUCGGCGGAUGCCUCCAAA [A14G A53G]
3. AUAAAAGCGCCAGAACUACAGAAAUGUAGUUGACGAGGGAGAGGUUUAUCGAAUUUUCGGCGGAUGCCUCCAAA [A39G G40A]

Result:
4.27e-05
0.00182
0.000261
